Recorded IC50 by entry
target: N-terminal His6-tagged recombinant full-length human Lck (Homo sapiens); construct: N-terminal His6-tagged recombinant full-length human Lck; His6 (N); assay: Lck IMAP assay; conditions: ATP 6 μM (KM,ATP), enzyme pre-incubated with compounds for 60 minutes, values given as bins
Sequence (P06239 whole entry): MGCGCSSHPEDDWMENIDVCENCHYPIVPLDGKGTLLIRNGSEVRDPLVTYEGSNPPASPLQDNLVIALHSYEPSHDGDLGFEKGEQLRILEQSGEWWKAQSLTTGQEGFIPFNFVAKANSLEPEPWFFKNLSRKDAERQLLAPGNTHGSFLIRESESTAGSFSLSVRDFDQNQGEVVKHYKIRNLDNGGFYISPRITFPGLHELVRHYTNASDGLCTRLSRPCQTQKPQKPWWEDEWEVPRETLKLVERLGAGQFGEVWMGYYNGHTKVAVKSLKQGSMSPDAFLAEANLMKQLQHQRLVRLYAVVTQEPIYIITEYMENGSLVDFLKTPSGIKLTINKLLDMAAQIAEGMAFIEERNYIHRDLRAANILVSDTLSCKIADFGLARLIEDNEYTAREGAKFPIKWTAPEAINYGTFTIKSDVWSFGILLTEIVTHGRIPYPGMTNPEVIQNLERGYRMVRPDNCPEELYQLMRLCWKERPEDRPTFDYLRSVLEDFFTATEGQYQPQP

For the molecule CNC[C@]1(O)CC[C@H](c2nc(-c3ccc(NC(=O)c4cc5c(OC)cccc5n4C)c(OC)c3)c3c(C)nccn32)CC1 , what IC50 is on record?
≤ 10 nM

For the molecule COc1cc(-c2nc(C3CCOCC3)n3ccnc(C)c23)ccc1NC(=O)c1cc2ccccc2n1C , what IC50 is on record?
≤ 10 nM

For the molecule COc1cc(-c2nc(N3CCC(N4CCOCC4)CC3)n3ccnc(C)c23)ccc1NC(=O)OC(C)C , what IC50 is on record?
10 to 100 nM

For the molecule COc1cc2cc(C(=O)Nc3ccc(-c4nc([C@H]5CC[C@H](N6CCN(C)CC6)CC5)n5ccnc(C)c45)cc3OC)n(C)c2cn1 , what IC50 is on record?
≤ 10 nM

For the molecule COc1cc(-c2nc(N3CCN(C(C)=O)CC3)n3ccnc(C)c23)ccc1NC(=O)c1cc2c(OC)cccc2n1C [Example 33g] , what IC50 is on record?
10 to 100 nM

For the molecule CCC[C@H](C)OC(=O)Nc1ccc(-c2nc([C@H]3CC[C@H](CNC(C)=O)CC3)n3ccnc(C)c23)cc1OC , what IC50 is on record?
≤ 10 nM

For the molecule CC[C@H](C)OC(=O)Nc1ccc(-c2nc([C@H]3CC[C@H](N4CCN(C)CC4)CC3)n3ccnc(C)c23)cc1OC , what IC50 is on record?
≤ 10 nM

====

target: N-terminal His6-tagged recombinant full-length human Lck (Homo sapiens); construct: N-terminal His6-tagged recombinant full-length human Lck; His6 (N); test: Lck IMAP assay; conditions: ATP 6 μM (KM,ATP), enzyme pre-incubated with compounds for 60 minutes, values given as bins
Recorded IC50 by entry

For the compound COc1cc(-c2nc([C@@H]3CCN(C(=O)CN(C)C)C3)n3ccnc(C)c23)ccc1NC(=O)c1cc2c(OC)cccc2n1C [Example 33e] , what IC50 is on record?
≤ 10 nM

For the compound COc1cc(-c2nc([C@H]3CCN(C4CCOCC4)C3)n3ccnc(C)c23)ccc1NC(=O)c1cc2c(OC)cccc2n1C , what IC50 is on record?
10 to 100 nM

For the compound COc1cc(-c2nc([C@H]3CC[C@H](N4CC(F)(F)C4)CC3)n3ccnc(C)c23)ccc1N(C)C(=O)OC(C)C , what IC50 is on record?
100 to 1000 nM

For the compound COc1cc(-c2nc([C@H]3CC[C@H](N4CCN(C(C)=O)CC4)CC3)n3ccnc(C)c23)ccc1NC(=O)c1cc2c(OC)cccc2n1C , what IC50 is on record?
≤ 10 nM

For the compound CCC[C@H](C)OC(=O)Nc1ccc(-c2nc([C@@H]3CCN(C(=O)CN(C)C)C3)n3ccnc(C)c23)cc1OC , what IC50 is on record?
≤ 10 nM

For the compound CCC[C@H](C)OC(=O)Nc1ccc(-c2nc([C@H]3CC[C@@H](N4CCN(C(C)=O)CC4)CC3)n3ccnc(C)c23)cc1OC [Example 26f] , what IC50 is on record?
≤ 10 nM

For the compound COc1cc(-c2nc(C3CCN(CC(=O)N(C)C)CC3)n3ccnc(C)c23)ccc1NC(=O)c1cc2ccccc2n1C , what IC50 is on record?
≤ 10 nM
